system: SF-295 CNS; assay: NCI tumour cell line growth inhibition, 48 h
Assay Metric: TGI (µM)
Please state the figure in µM; there is no need to write the unit.

> print(dat)
                                   molecule  output.unit  experimental.result
1  CN1c2ccccc2S(=O)(=O)n2c(COc3ccc(Cl)cc3)nnc21           µM                 92.7
2       CCN(CC)CCNC(=O)c1cccc2cc3ccccc3nc12           µM                 37.1
3  CC(=O)OCC1OC(OC2=C(CC=C(Cl)Cl)C(=O)c3ccccc3C2=O)C(OC(C)=O)C(OC(C)=O)C1OC(C)=O (configuration not stated)           µM                 31.4
4  C=C(CS(=O)(=O)c1ccccc1)[P+](c1ccccc1)(c1ccccc1)c1ccccc1           µM                   50
5  CCOC(=O)c1c(C)n2c(=O)cc(C)c3c(OC(C)=O)c(OC(C)=O)cc1c32           µM                 45.2

Lookup result for O=C(c1cccs1)c1c(C(F)(F)F)n([O-])c2ccc(F)cc2[n+]1=O ; measured TGI: 3.58

Lookup result for O=C(OCC12CC3CC(CC(C3)C1)C2)c1ccc(NCc2cc(O)ccc2O)cc1 ; measured TGI: 17.7

Lookup result for Oc1cc(O)c2c(=S)cc(-c3ccc(Cl)cc3)oc2c1 ; measured TGI: 22.9

Lookup result for CN1CCN(Cc2ccc(NC(=O)c3ccc(C#N)c(C#Cc4cnc(N)c5ncccc45)c3)cc2C(F)(F)F)CC1 ; measured TGI: 78.3

###

Listed here: items and their measured TGI.
test system: DMS 273 small cell lung; test: NCI tumour cell line growth inhibition, 48 h

> print(dat)
                                   compound  experimental.result
1                      c1ccc2c(c1)nc1n2CSC1             > 100 µM
2  C=C(CS(=O)(=O)c1ccccc1)[P+](c1ccccc1)(c1ccccc1)c1ccccc1              33.4 µM
3  O=C(Nc1ccc(Cl)cc1)/C(Cc1cccc[n+]1[O-])=N\Nc1ccc([N+](=O)[O-])cc1[N+](=O)[O-]             > 100 µM
4   O=C(Nc1ccccc1Br)c1cccc([N+](=O)[O-])c1O            > 48.8 µM
5  CCN(CC)C(=S)SC1CCOP(=O)(N(CCCl)CCCl)N1C (centres undefined)            > 79.4 µM

For COc1c2c(cc3c(CCc4ccccc4)cc(=O)oc13)CCC(C)(C)O2 on DMS 273 small cell lung, measured TGI was > 100 µM

For CCOC(=O)C(=O)N=Nc1nc2c(O)c3ccccc3c(O)c2s1 on DMS 273 small cell lung, measured TGI was 9.2 µM

For [C-]#[O+].[Cl][Sn]([Cl])[Cl].[Cl][Sn]([Cl])[Cl].[Pt].c1ccncc1 on DMS 273 small cell lung, measured TGI was > 100 µM

For C[C@H]1CC(=O)C2=CCCC3(SCCCS3)[C@@H]2[C@H]1CO on DMS 273 small cell lung, measured TGI was > 100 µM

For CCC[CH2][Sn]([CH2]CCC)([O]C(=O)c1nccnc1N)[O]C(=O)c1nccnc1N on DMS 273 small cell lung, measured TGI was 2.12 µM

For O=C1/C(=C/c2ccccc2)CCC/C1=C\c1ccccc1 on DMS 273 small cell lung, measured TGI was 21.5 µM

For CC1(C)C2CCC3(OCCO3)C1C1OC12 (centres undefined) on DMS 273 small cell lung, measured TGI was > 100 µM

For CC(=O)OC1CC2(c3ccccc3)C(=O)c3ccccc3N2O1 (centres undefined) on DMS 273 small cell lung, measured TGI was > 100 µM

###

tested on: SNB-19 CNS; experiment: NCI tumour cell line growth inhibition, 48 h
Listed here: items and their measured TGI.

Compound	Assay System	TGI
Nc1ncnc2c1ncn2C1CCC(CO)O1 (centres undefined)	SNB-19 CNS	> 100 µM

Lookup result for CN1CCN(Cc2ccc(NC(=O)c3ccc(C#N)c(C#Cc4cnc(N)c5ncccc45)c3)cc2C(F)(F)F)CC1 ; measured TGI: > 100 µM

Lookup result for COc1ccc(-n2c(C)nc3ccc(NC4OCC(O)C(O)C4O)cc3c2=O)cc1 (centres undefined) ; measured TGI: > 100 µM

Lookup result for CC[C@@H](C(=O)[C@@H](C)[C@@H](O)[C@H](C)[C@@H]1O[C@@H]([C@@H](CC)C(=O)O)CC[C@@H]1C)[C@H]1OC2(C=C[C@@H](O)[C@]3(CC[C@@](C)([C@H]4CC[C@](O)(CC)[C@H](C)O4)O3)O2)[C@H](C)C[C@@H]1C (some centres undefined) ; measured TGI: > 14.2 µM

###

test system: MDA-MB-231 breast; assay: NCI tumour cell line growth inhibition, 48 h; in the data active means GI50 below about 0.43 µM; inactive means the rest
I would appreciate it if you answered using one of these outcomes: Y for active, N for inactive

Example results:
> print(dat)
                                   compound       assay.system  assigned.label
1  CC(=O)[O-].CC(=O)[O-].[NH2-].[Pt+2].c1ccncc1  MDA-MB-231 breast               N
2  c1ccc(-c2nn(-c3ccccc3)[n+](-c3cccc4ccccc34)n2)cc1  MDA-MB-231 breast               N

Test call for this compound, please: COc1cc(C2CC(c3cc(C)ccc3C)=NN2c2ccc(S(=O)(=O)NC(=O)NCc3ccccc3)cc2)cc(OC)c1OC (stereo not drawn)
N

Test call for this compound, please: CC1=C([Se]CC(OC(=O)[C@@H](CO)NC(=O)OC(C)(C)C)C(=O)NC(C)(C)C)C(=O)c2ccccc2C1=O (stereo partly drawn)
N

Test call for this compound, please: COc1c(CNC(=O)CCl)cc2[nH]c(C)cc2c1CNC(=O)CCl
N

Test call for this compound, please: CCCN(CCC)CCCNC(=O)c1cc2c(-c3ccc(OC)c(OC)c3)nn(C)c2s1
N

Test call for this compound, please: COc1cc([C@@H]2c3cc4c(cc3[C@H](O)[C@H]3COC(=O)[C@H]23)OCO4)cc(OC)c1OC
Y

Test call for this compound, please: COC(=O)[C@H](CC(C)C)NC(=O)NC(=O)NC(=O)CI
N

###

tested on: OVCAR-3 ovarian; test: NCI tumour cell line growth inhibition, 48 h
Assay Metric: TGI

> print(dat)
                                   molecule  experimental.result
1            O=C(O)CCCCn1cnc2c(=S)nc[nH]c21             > 100 µM
2  C[C@H]1CC(=O)C2=CCCC3(SCCCS3)[C@@H]2[C@H]1CO             > 100 µM
3  COc1ccc(C(C2C(=O)N(C)C(=O)N(C)C2=O)C(F)(F)C(=O)N(C)C)cc1 (stereo unspecified)             > 100 µM
4  COc1ccc2c(=O)c3cc([N+](=O)[O-])ccc3n(C)c2c1             > 100 µM
5  COC(=O)/C=C1/N=C(N(C)/N=C/c2ccccc2)NC1=O             > 100 µM

Lookup result for CC12CC[C@H](O)C(C)(C)[C@H]1CC[C@](C)(O)C2COc1ccc2ccc(=O)oc2c1 (stereo partly specified) ; measured TGI: > 100 µM

###

system: MCF7 breast; assay: NCI tumour cell line growth inhibition, 48 h
Assay Metric: log10 TGI (log10 of the value in µM)
Record value = log10 of TGI given in µM.

Recorded results for 3 compounds are shown here.
> print(dat)
                                   compound  assay.system  experimental.result
1  CC(=O)[O-].CC(=O)[O-].[NH2-].[Pt+2].c1ccncc1   MCF7 breast                 1.82
2  O=[N+]([O-])c1cccc2nc3ccccc3c(NCCCN3CCOCC3)c12   MCF7 breast                -0.99
3  CC(C)=CC(=O)OC1C2C(C)C(=O)OC2C(O)C(C)C2C=CC(=O)C21C (centres undefined)   MCF7 breast                 1.05

Lookup result for O=C(OCC12CC3CC(CC(C3)C1)C2)c1ccc(NCc2cc(O)ccc2O)cc1 ; measured log10 TGI: 1.57

Lookup result for COC(=O)[C@H](CC(C)C)NC(=O)NC(=O)NC(=O)CI ; measured log10 TGI: 0.64

Lookup result for COc1c(CNC(=O)CCl)cc2[nH]c(C)cc2c1CNC(=O)CCl ; measured log10 TGI: 1.32

Lookup result for CCN(CC)CCCC(Nc1c2ccc(Cl)cc2nc2ccc(OC)cc12)c1ccc(F)cc1 (centres undefined) ; measured log10 TGI: 0.56

Lookup result for O=C(c1cccs1)c1c(C(F)(F)F)n([O-])c2ccc(F)cc2[n+]1=O ; measured log10 TGI: 0.49

Lookup result for CC1=CCC[C@@H]2[C@@](C)(Cc3cc(O)ccc3O)[C@H](C)CC[C@@]12C ; measured log10 TGI: 1.27

Lookup result for Oc1cc(O)c2c(=S)cc(-c3ccc(Cl)cc3)oc2c1 ; measured log10 TGI: 1.06
